experiment: Measurement (1): quantification of unchanged compound in mouse brain samples by LC-MS/MS, brain/plasma ratio; assay type: in vivo; conditions: iv at 3 mg/kg, read-out: Ratio: amount present in the brain/amount present in the plasma
REPORTED_METRIC: Kp
Write the value as a bare number.

What does the record list as Kp for NC(=O)C1(c2ccccc2)CCN(C(=O)c2cc(-c3ccc(OCCCO)cc3)c(-c3ccc(Cl)cc3Cl)s2)CC1 [compound 8] ?
0.04
